Where do these numbers come from? They come from patent US10800758B2.

List of inhibition in vivo at 30 mg/kg values.
Tested on: DBA/2 mice
test-description: Audiogenic seizure model
Type: in vivo
condition-description: Mus musculus; male and female DBA/2 mice, 30 mg/kg oral, auditory stimulation 1 hour after administration; read-out: Seizure suppression rate (%)
Kindly provide the numeric value in % only, without the unit symbol.

Give its inhibition in vivo at 30 mg/kg value. Item: COc1nc(Oc2ccccc2F)ncc1N1CCC(=O)NC1=O
87

Give its inhibition in vivo at 30 mg/kg value. Item: Cc1cccc(Oc2ncc(N3CCC(=O)NC3=O)cn2)c1
100

###

System: DBA/2 mice
test-description: Audiogenic seizure model
Type: in vivo
condition-description: Mus musculus; male and female DBA/2 mice, 30 mg/kg oral, auditory stimulation 1 hour after administration; read-out: Seizure suppression rate (%)
Criterion: inhibition in vivo at 30 mg/kg meeting or surpassing 90%. Met: fulfilled. Not met: not fulfilled.

Please review the following examples before continuing.
O=C1CCN(c2cnc(Oc3cccc(Br)c3)nc2)C(=O)N1 [Example 44]: not fulfilled
COc1cccc(Oc2ncc(N3CCC(=O)NC3=O)cn2)c1 [Example 21]: fulfilled
COc1nc(Oc2ccccc2)ncc1N1CCC(=O)NC1=O [Example 18]: fulfilled
O=c1ccn(-c2cnc(Oc3cccc(F)c3)nc2)c(=O)[nH]1 [Example 41]: fulfilled

Is inhibition in vivo at 30 mg/kg for O=C1CCN(c2cnc(Oc3c(F)cccc3F)nc2)C(=O)N1 [Example 13] at or above 90%?
fulfilled

Is inhibition in vivo at 30 mg/kg for COc1nc(Oc2ccc(F)cc2)ncc1N1CCC(=O)NC1=O [Example 48] at or above 90%?
fulfilled

Is inhibition in vivo at 30 mg/kg for COc1nc(Oc2c(F)cccc2F)ncc1N1CCC(=O)NC1=O [Example 52] at or above 90%?
fulfilled

Is inhibition in vivo at 30 mg/kg for Cc1cc(C)cc(Oc2ncc(N3CCC(=O)NC3=O)cn2)c1 [Example 37] at or above 90%?
not fulfilled

Is inhibition in vivo at 30 mg/kg for O=C1CCN(c2cnc(Oc3ccccc3)nc2)C(=O)N1 [Example 1] at or above 90%?
fulfilled

Is inhibition in vivo at 30 mg/kg for O=C1CCN(c2cnc(Oc3cccc(F)c3)nc2)C(=O)N1 [Example 3] at or above 90%?
fulfilled

Is inhibition in vivo at 30 mg/kg for O=c1ccn(-c2cnc(Oc3ccccc3)nc2)c(=O)[nH]1 [Example 4] at or above 90%?
fulfilled

Is inhibition in vivo at 30 mg/kg for O=C1CCN(c2cnc(Oc3cccc(C(F)(F)F)c3)nc2)C(=O)N1 [Example 9] at or above 90%?
fulfilled

Is inhibition in vivo at 30 mg/kg for O=C1CCN(c2cnc(-c3ccccc3)nc2)C(=O)N1 [Example 30] at or above 90%?
fulfilled

Is inhibition in vivo at 30 mg/kg for COc1nc(Oc2cc(F)cc(F)c2)ncc1N1CCC(=O)NC1=O [Example 54] at or above 90%?
fulfilled
